Below is a list of entries, each paired with its recorded AC50 value.
- System: Hara (NRF2 pathway wild type cell line with low AKR1C3 expression)
- Assay: In vitro cell proliferation assay (CellTiter-Glo), Hara
- Type: cell-based
- Condition Parameters: 72 h; Hara cells, 3 days, CellTiter-Glo, top concentration 10 μM; read-out: HARA Qualified absolute AC50
Numeric only. Scale: nM

Compound	Measured Endpoint	Result Value
O=C1CC2(CCN(C(=O)NCc3cccc(-c4cnco4)c3)CC2)Nc2c(F)cc(F)cc21	AC50	2720
O=C1CC2(CCN(C(=O)NCc3ccc(F)c(OCCO)c3)CC2)Nc2ccc(F)cc21	AC50	3550

As a next step, examine the compound that follows.
Give the reported value of AC50 for this record: CN1c2ccc(F)cc2C(O)CC12CCN(C(=O)NCc1ccc(F)c(CC(N)=O)c1)CC2 (racemic)
91

---

Below is a list of entries, each paired with its recorded AC50 value.
- Test system: Hara (NRF2 pathway wild type cell line with low AKR1C3 expression)
- Assay: In vitro cell proliferation assay (CellTiter-Glo), Hara
- Format: cell-based
- Condition Parameters: 72 h; Hara cells, 3 days, CellTiter-Glo, top concentration 10 μM; read-out: HARA Qualified absolute AC50

Below are worked cases with known answers.
Compound	AC50
Nc1cc(CNC(=O)N2CCC3(CC2)CC(O)c2cc(F)ccc2N3)ccc1F (racemic)	0.006 µM
O=C1CC2(CCN(C(=O)NCc3cccc(-c4ncc[nH]4)c3)CC2)Nc2ccc(F)cc21	> 10 µM
Nc1ccc(CNC(=O)N2CCC3(CC2)CC(=O)c2cc(F)ccc2N3)cn1	> 10 µM
CCN1c2ccc(F)cc2C(=O)CC12CCN(C(=O)NCc1cc(N)c(F)cc1F)CC2	> 10 µM
CN1c2ccc(F)cc2C(=O)CC12CCN(C(=O)NCc1ccc(F)c(C(C)(C)O)c1)CC2	8.83 µM

Give the reported value of AC50 for this record: CN1c2ccc(F)cc2C(=O)CC12CCN(C(=O)NCc1ccc(F)c(NS(C)(=O)=O)c1)CC2
5.17 µM

Give the reported value of AC50 for this record: CN1c2ccc(F)cc2C(=O)CC12CCN(C(=O)NCc1ccc(F)c(NCCOP(=O)(O)O)c1)CC2
> 10 µM

Give the reported value of AC50 for this record: C[C@H](O)CNC(=O)c1cc(CNC(=O)N2CCC3(CC2)CC(=O)c2cc(F)ccc2N3C)ccc1F
> 10 µM

---

Below is a list of entries, each paired with its recorded log10 of AC50 value.
- System: H460 (NRF2 pathway mutant cell line with high AKR1C3 expression)
- Assay: In vitro cell proliferation assay (CellTiter-Glo), H460
- Format: cell-based
- Condition Parameters: Homo sapiens, NCI-H460, 72 h; H460 cells, 3 days, CellTiter-Glo, top concentration 10 μM; read-out: H460 Qualified absolute AC50
All values: log10 AC50 [µM].

Compound	log10 of AC50
C/C=C/CN1c2ccc(F)cc2C(=O)CC12CCN(C(=O)NCc1ccc(F)cc1)CC2	-0.43
CN1c2ccc(F)cc2C(=O)CC12CCN(C(=O)NCc1cc(NCCO)c(F)cc1F)CC2	-1.52
NC(=O)Cc1cc(CNC(=O)N2CCC3(CC2)CC(=O)c2cc(F)ccc2N3)ccc1F	-0.25
COc1cc(F)ccc1CNC(=O)N1CCC2(CC1)CC(O)c1cc(F)ccc1N2 (racemic)	-1.39
NS(=O)(=O)c1cc(CNC(=O)N2CCC3(CC2)CC(=O)c2cc(F)ccc2N3)ccc1F	-1.21

// output log10 of AC50; input Nc1cc(CNC(=O)N2CCC3(CC2)CC(=O)c2cc(F)ccc2N3)c(F)cc1F ; system H460 (NRF2 pathway mutant cell line with high AKR1C3 expression)
0.11

// output log10 of AC50; input O=C1CC2(CCN(C(=O)NCc3ncccc3O)CC2)Nc2c(F)cc(F)cc21 ; system H460 (NRF2 pathway mutant cell line with high AKR1C3 expression)
-0.65

// output log10 of AC50; input Cc1occc1CNC(=O)N1CCC2(CC1)CC(=O)c1cc(F)cc(F)c1N2 ; system H460 (NRF2 pathway mutant cell line with high AKR1C3 expression)
-1.68

// output log10 of AC50; input CN1c2ccc(F)cc2C(=O)CC12CCN(C(=O)NCc1ccc(F)c(NCC3COCCO3)c1)CC2 (stereo not drawn) ; system H460 (NRF2 pathway mutant cell line with high AKR1C3 expression)
-1.19

// output log10 of AC50; input Cc1cc(N)ccc1CNC(=O)N1CCC2(CC1)CC(=O)c1cc(F)ccc1N2 ; system H460 (NRF2 pathway mutant cell line with high AKR1C3 expression)
-0.03

// output log10 of AC50; input CCN1c2ccc(F)cc2C(=O)CC12CCN(C(=O)NCc1ccc(F)c(NCCO)c1)CC2 ; system H460 (NRF2 pathway mutant cell line with high AKR1C3 expression)
-1.33

// output log10 of AC50; input NC(=O)c1c(F)ccc(CNC(=O)N2CCC3(CC2)CC(=O)c2cc(F)ccc2N3)c1F ; system H460 (NRF2 pathway mutant cell line with high AKR1C3 expression)
-0.16

// output log10 of AC50; input O=C1CC2(CCN(C(=O)NCc3ccc(O)cc3)CC2)Nc2c(F)cc(F)cc21 ; system H460 (NRF2 pathway mutant cell line with high AKR1C3 expression)
-2.52

// output log10 of AC50; input O=C1CC2(CCN(C(=O)NCc3ccc(F)cc3OCC(F)(F)F)CC2)Nc2ccc(F)cc21 ; system H460 (NRF2 pathway mutant cell line with high AKR1C3 expression)
-0.89

// output log10 of AC50; input Nc1cc(F)c(CNC(=O)N2CCC3(CC2)CC(=O)c2cc(F)ccc2N3)c(F)c1 ; system H460 (NRF2 pathway mutant cell line with high AKR1C3 expression)
-0.46

// output log10 of AC50; input O=C(NCC(F)(F)F)c1cc(CNC(=O)N2CCC3(CC2)CC(=O)c2cc(F)ccc2N3)ccc1F ; system H460 (NRF2 pathway mutant cell line with high AKR1C3 expression)
-0.28

// output log10 of AC50; input O=C(NC1CC(O)C1)c1cc(CNC(=O)N2CCC3(CC2)CC(=O)c2cc(F)ccc2N3)ccc1F (stereo not drawn) ; system H460 (NRF2 pathway mutant cell line with high AKR1C3 expression)
-0.70

// output log10 of AC50; input CCN1c2ccc(F)cc2C(=O)CC12CCN(C(=O)NCc1ccc(F)cc1)CC2 ; system H460 (NRF2 pathway mutant cell line with high AKR1C3 expression)
-2.05

// output log10 of AC50; input CCN1c2ccc(F)cc2C(=O)CC12CCN(C(=O)NCc1cc(NCCO)c(F)cc1F)CC2 ; system H460 (NRF2 pathway mutant cell line with high AKR1C3 expression)
-1.52

// output log10 of AC50; input O=C1CC2(CCN(C(=O)NCc3cc(OCCO)c(F)cc3F)CC2)Nc2ccc(F)cc21 ; system H460 (NRF2 pathway mutant cell line with high AKR1C3 expression)
-0.58

// output log10 of AC50; input CN1c2ccc(F)cc2C(=O)CC12CCN(C(=O)NCc1ccc(F)c(OCCO)c1)CC2 ; system H460 (NRF2 pathway mutant cell line with high AKR1C3 expression)
-2.30

---

- Tested on: Hara (NRF2 pathway wild type cell line with low AKR1C3 expression)
- Assay: In vitro cell proliferation assay (CellTiter-Glo), Hara
- Type: cell-based
- Condition Parameters: 72 h; Hara cells, 3 days, CellTiter-Glo, top concentration 10 μM; read-out: HARA Qualified absolute AC50
Measured Endpoint: AC50

Below are worked cases with known answers.
Molecule	Subject Of Test	AC50
COCCOc1cc(CNC(=O)N2CCC3(CC2)CC(=O)c2cc(F)ccc2N3C)ccc1F	Hara (NRF2 pathway wild type cell line with low AKR1C3 expression)	> 10000 nM
CN1c2ccc(F)cc2[C@H](O)CC12CCN(C(=O)NCc1ccc(F)cc1)CC2 (single isomer, unassigned) [Example 151a]	Hara (NRF2 pathway wild type cell line with low AKR1C3 expression)	20 nM

Give the reported value of AC50 for this record: O=C1CC2(CCN(C(=O)NCc3ccoc3)CC2)Nc2c(F)cc(F)cc21
2940 nM

---

- Test system: Hara (NRF2 pathway wild type cell line with low AKR1C3 expression)
- Assay: In vitro cell proliferation assay (CellTiter-Glo), Hara
- Assay type: cell-based
- Condition Parameters: 72 h; Hara cells, 3 days, CellTiter-Glo, top concentration 10 μM; read-out: HARA Qualified absolute AC50
Measured Endpoint: AC50 (µM)
Numeric only. Scale: µM

Below are worked cases with known answers.
Compound	Measured Endpoint	Unit Tag	Result Value
C/C=C/CN1c2ccc(F)cc2C(=O)CC12CCN(C(=O)NCc1ccc(F)cc1)CC2 [Example 85]	AC50	µM	9.49
COc1cc(F)ccc1CNC(=O)N1CCC2(CC1)CC(=O)c1cc(F)ccc1N2 [Example 114]	AC50	µM	4.43
O=C1CC2(CCN(C(=O)NCc3ccc(OC(F)F)c(F)c3)CC2)Nc2c(F)cc(F)cc21 [Example 108]	AC50	µM	3.18

Give the reported value of AC50 for this record: CCN1c2ccc(F)cc2C(=O)CC12CCN(C(=O)NCc1cc(NCCO)c(F)cc1F)CC2 [Example 18]
4.19
